assay: optical interference in Abeta FP readout, dose response, artefact control for IDE activator project, biochemical, fluorescence polarization (AID 588442); conditions: FP artifact counterscreen, fluorescein-Abeta, no enzyme activity
Results with a measured potency or affinity are listed apart. Active and inactive are the calls of the source.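 Rule for the calls: active = EC50 of 10 µM or lower; inactive = EC50 above 10 µM or not measured.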
// EC50 lookup, one value per entry
Value type: EC50

smiles_data=C#CCOCCOCCOCCNc1nc(N2CCN(C(=O)CCCCCCCCCCNC(=O)[C@H](CCCCN)n3cc(CCO)nn3)CC2)nc(N2CCN(C(=O)CCCCCCCCCCNC(=O)[C@H](CCCN=C(N)N)n3cc(C[C@@H](C)CC)nn3)CC2)n1 value_type=EC50 test_value="> 55.9 µM (inactive)"
smiles_data=C#CCOCCOCCOCCNc1nc(N2CCN(C(=O)CCCCCCCCCCNC(=O)[C@H]([C@@H](C)CC)n3cc(CCCCCN)nn3)CC2)nc(N2CCN(C(=O)CCCCCCCCCCNC(=O)[C@H]([C@@H](C)CC)n3cc(CCCCN=C(N)N)nn3)CC2)n1 value_type=EC50 test_value="> 55.9 µM (inactive)"
smiles_data=C#CCOCCOCCOCCNc1nc(N2CCN(C(=O)CCCCCCCCCCNC(=O)[C@H]([C@@H](C)CC)n3cc(CCCCN=C(N)N)nn3)CC2)nc(N2CCN(C(=O)CCCCCCCCCCNC(=O)[C@@H]([C@H](C)O)n3cc(C)nn3)CC2)n1 value_type=EC50 test_value="> 54.7 µM (inactive)"
smiles_data=C#CCOCCOCCOCCNc1nc(N2CCN(C(=O)CCCCCCCCCCNC(=O)Cn3cc(CCCCCN)nn3)CC2)nc(N2CCN(C(=O)CCCCCCCCCCNC(=O)[C@H]([C@@H](C)CC)n3cc(CCCCCN)nn3)CC2)n1 value_type=EC50 test_value="> 55.9 µM (inactive)"
